# test description: The drug is tested on Bacteroides pectinophilus strain: ATCC43243 for biotransformation. The drug concentrations were measured before and after a 12-h incubation by liquid-chromatography-coupled mass spectrometry (LC–MS)
# conditions used: 2 µM
property measured: Bacterial Biotransformation

- molecule: "COc1ccc(/C=C/C(=O)Nc2ccccc2C(=O)O)cc1OC"
  Bacterial Biotransformation: "Compound NOT metabolized"
- molecule: "CCN(CC)CCOC(=O)C1(C2CCCCC2)CCCCC1"
  Bacterial Biotransformation: "Compound NOT metabolized"
- molecule: "CN1C(=O)CCS(=O)(=O)C1c1ccc(Cl)cc1 (stereo not given)"
  Bacterial Biotransformation: "Compound NOT metabolized"
- molecule: "COc1ccc(CN2CCNCC2)c(OC)c1OC.Cl.Cl [TRIMETAZIDINE DIHYDROCHLORIDE]"
  Bacterial Biotransformation: "Compound NOT metabolized"
- molecule: "C#C[C@]1(OC(C)=O)CC[C@H]2[C@@H]3CCC4=C[C@@H](OC(C)=O)CC[C@@H]4[C@H]3CC[C@@]21C [ETHYNODIOL DIACETATE]"
  Bacterial Biotransformation: "Compound NOT metabolized"

State the recorded Bacterial Biotransformation for every item in the following list.
1. CC(C)NCC(O)COc1ccc(CC(N)=O)cc1 (stereo not given)
2. COc1ccc2c(c1OC)C(=O)O[C@@H]2[C@H]1c2c(cc3c(c2OC)OCO3)CCN1C
3. OC(Cn1cncn1)(Cn1cncn1)c1ccc(F)cc1F
4. C[C@@H]1CC[C@H]2[C@@H](C)C(=O)O[C@@H]3O[C@@]4(C)CC[C@@H]1[C@]32OO4

Marked response:
1: Compound NOT metabolized; 2: Compound metabolized; 3: Compound NOT metabolized; 4: Compound metabolized

Exam item: Given the molecule CCCC(C)(COC(N)=O)COC(=O)NC(C)C (stereo not given) , write its reported Bacterial Biotransformation.
Marked response: Compound metabolized

====

# test description: The drug is tested on Alistipes indistinctus strain: DSM22520 for biotransformation. The drug concentrations were measured before and after a 12-h incubation by liquid-chromatography-coupled mass spectrometry (LC–MS)
# conditions used: 2 µM
property measured: Bacterial Biotransformation

Guide cases for Bacterial Biotransformation, answers given:
- molecule: "CC(=O)O[C@]1(C(C)=O)CC[C@H]2[C@@H]3C=C(Cl)C4=CC(=O)[C@@H]5C[C@@H]5[C@]4(C)[C@H]3CC[C@@]21C [CYPROTERONE ACETATE]"
  Bacterial Biotransformation: "Compound NOT metabolized"
- molecule: "O=P1(N(CCCl)CCCl)NCCCO1 (centres undefined) [CYCLOPHOSPHAMIDE ANHYDROUS]"
  Bacterial Biotransformation: "Compound metabolized"
- molecule: "OC(Cn1cncn1)(Cn1cncn1)c1ccc(F)cc1F"
  Bacterial Biotransformation: "Compound NOT metabolized"
- molecule: "Clc1ccc(Cn2c(CN3CCCC3)nc3ccccc32)cc1"
  Bacterial Biotransformation: "Compound NOT metabolized"
- molecule: "C=CCc1ccccc1OCC(O)CNC(C)C (centres undefined)"
  Bacterial Biotransformation: "Compound NOT metabolized"
- molecule: "C#C[C@]1(O)CC[C@H]2[C@@H]3CCC4=CC(=O)CC[C@@H]4[C@H]3CC[C@@]21CC"
  Bacterial Biotransformation: "Compound NOT metabolized"

Parameters: items (list). Returns: Bacterial Biotransformation for each item.
1. O=C(O)c1cc(/N=N/c2ccc(S(=O)(=O)Nc3ccccn3)cc2)ccc1O
2. COc1c(C)c2c(c(O)c1C/C=C(\C)CCC(=O)OCCN1CCOCC1)C(=O)OC2 [MYCOPHENOLATE MOFETIL]

Marked response:
1: Compound metabolized; 2: Compound metabolized

Exam item: Complete the entry with Bacterial Biotransformation for O=c1[nH]c2ccccc2n1C1CCN(CCCC(c2ccc(F)cc2)c2ccc(F)cc2)CC1 [PIMOZIDE]
Marked response: Compound NOT metabolized
